- tgt: UltraGlo luciferase variant Triple+300 (H244W, T344A, I396K, C300G), SEQ ID NO: 11 (Photuris pensylvanica, UniProt Q27757, A101V/A17E/A262V/C221A/D34A/D353K/D394P/E2A/F294L/F367L/F500Y/G84S/H14Y/H220I/H244W/I125V/I173S/I396K/K413N/L193S/L91V/N183Y/N412D/N499D/P295A/R357K/S105N/S204P/S36P/S399G/S502A/T234S/T249M/T344A/T354G/T386P/V145I/V194I/V203L/V300G/V356A/Y144S/Y27D)
- Sequence (Q27757 other isoform, or with tags, fused parts or gaps with the stated changes): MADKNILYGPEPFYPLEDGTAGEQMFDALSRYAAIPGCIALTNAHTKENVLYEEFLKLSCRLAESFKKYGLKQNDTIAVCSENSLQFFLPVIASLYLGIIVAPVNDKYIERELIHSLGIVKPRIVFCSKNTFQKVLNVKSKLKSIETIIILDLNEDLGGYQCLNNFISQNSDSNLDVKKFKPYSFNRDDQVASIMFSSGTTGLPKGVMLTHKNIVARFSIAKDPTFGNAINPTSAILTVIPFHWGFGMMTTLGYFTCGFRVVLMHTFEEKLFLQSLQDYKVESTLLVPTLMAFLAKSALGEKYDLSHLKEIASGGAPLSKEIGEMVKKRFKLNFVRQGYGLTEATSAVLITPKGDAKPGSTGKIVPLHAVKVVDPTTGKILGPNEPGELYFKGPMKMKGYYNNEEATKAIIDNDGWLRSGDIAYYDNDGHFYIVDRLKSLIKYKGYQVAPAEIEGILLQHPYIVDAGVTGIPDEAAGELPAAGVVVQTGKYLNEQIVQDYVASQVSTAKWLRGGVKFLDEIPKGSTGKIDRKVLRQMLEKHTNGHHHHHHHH
- test: Competitive inhibition of F-luciferin luminescence by dehydro-F-luciferin, purified Triple+300 luciferase mutant
- Format: biochemical
- experimentalParameters: Detection Reagent buffer; F-luciferin 1 mM, ATP 0.5 mM final; 3 minutes at room temperature; Michaelis-Menten competitive inhibition model
assayEndpoint: Ki (µM)
Write the value in µM as a bare number.

Identify the reported Ki for the following entry. O=C(O)c1csc(-c2nc3cc(F)c(O)cc3s2)n1 [dehydro-F-luciferin] 0.563

* * *

- tgt: UltraGlo luciferase (parent, ULTRA GLO luciferase, SEQ ID NO: 3) (Photuris pensylvanica, UniProt Q27757, A101V/A17E/A262V/C221A/D34A/D353K/D394P/E2A/F294L/F367L/F500Y/G84S/H14Y/H220I/I125V/I173S/K413N/L193S/L91V/N183Y/N412D/N499D/P295A/R357K/S105N/S204P/S36P/S399G/S502A/T234S/T249M/T354G/T386P/V145I/V194I/V203L/V300C/V356A/Y144S/Y27D)
- Construct: full length, 552 aa
- Sequence (Q27757 other isoform, or with tags, fused parts or gaps with the stated changes): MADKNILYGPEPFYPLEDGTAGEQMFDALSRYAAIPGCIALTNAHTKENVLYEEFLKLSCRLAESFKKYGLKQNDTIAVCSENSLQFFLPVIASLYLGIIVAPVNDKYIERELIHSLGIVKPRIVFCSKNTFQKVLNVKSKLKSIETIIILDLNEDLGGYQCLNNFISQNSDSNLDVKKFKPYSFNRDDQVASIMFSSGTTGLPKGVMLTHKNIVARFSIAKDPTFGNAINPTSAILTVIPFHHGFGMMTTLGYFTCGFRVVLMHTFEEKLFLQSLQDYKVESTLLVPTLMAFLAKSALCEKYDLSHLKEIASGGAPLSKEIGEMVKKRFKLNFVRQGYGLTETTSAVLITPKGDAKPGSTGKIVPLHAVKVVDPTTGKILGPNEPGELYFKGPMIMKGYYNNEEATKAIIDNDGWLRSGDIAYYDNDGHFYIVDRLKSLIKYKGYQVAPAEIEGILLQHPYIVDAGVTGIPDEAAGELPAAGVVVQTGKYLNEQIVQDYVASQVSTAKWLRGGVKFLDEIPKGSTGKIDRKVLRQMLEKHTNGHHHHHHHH
- test: Competitive inhibition of F-luciferin luminescence by dehydro-F-luciferin, purified UltraGlo luciferase
- Format: biochemical
- experimentalParameters: Detection Reagent buffer; F-luciferin 1 mM, ATP 0.5 mM final; 3 minutes at room temperature; Michaelis-Menten competitive inhibition model
assayEndpoint: pKi
pKi (log units): -log10 of the concentration in mol/L.

Please report the measured pKi for O=C(O)c1csc(-c2nc3cc(F)c(O)cc3s2)n1 [dehydro-F-luciferin] 6.38

* * *

- tgt: UltraGlo luciferase (parent, ULTRA GLO luciferase, SEQ ID NO: 3) (Photuris pensylvanica, UniProt Q27757, A101V/A17E/A262V/C221A/D34A/D353K/D394P/E2A/F294L/F367L/F500Y/G84S/H14Y/H220I/I125V/I173S/K413N/L193S/L91V/N183Y/N412D/N499D/P295A/R357K/S105N/S204P/S36P/S399G/S502A/T234S/T249M/T354G/T386P/V145I/V194I/V203L/V300C/V356A/Y144S/Y27D)
- Construct: full length, 552 aa
- test: Competitive inhibition of F-luciferin luminescence by dehydro-F-luciferin, purified UltraGlo luciferase
- Type: biochemical
- experimentalParameters: BrightGlo buffer; F-luciferin 1 mM, ATP 0.5 mM final; 3 minutes at room temperature; Michaelis-Menten competitive inhibition model
assayEndpoint: Ki (nM)
Express it in nM; write the number only.

Give the measured Ki for O=C(O)c1csc(-c2nc3cc(F)c(O)cc3s2)n1 [dehydro-F-luciferin] 39.9
